# credit: PubChem BioAssay

- tested_on: Carbonic anhydrase 2 (Homo sapiens)
- test: CAII small-molecule binders, profiling panel, biochemical, small-molecule microarray, Alexa647-labelled CAII (AID 1122)
- condition_set: CAII-A647 binding fluorescence, higher = more signal
# reported composite z-score; entries follow
Note: the reply should be a number with no unit written.

molecule	composite z-score
COc1ccc(C(O)C2C=CC3C(=O)N(c4ccccc4)C(=O)C3N2Nc2ccccc2)cc1 (configuration not stated)	0.781
C=CC[C@H](OC(=O)Nc1ccc(SC)cc1)c1ccc(OCCO)cc1	0.655
COCCOC(=O)N1C(=O)[C@@]2(c3ccccc31)[C@H](c1ccccc1OCCO)N1[C@H](c3ccccc3)[C@H](c3ccccc3)OC(=O)[C@H]1[C@@H]2C(=O)N1CCCCCCC1	0.935
O=C1[C@@H]2[C@@H](CC(COc3ccccc3)=C3[C@@H](CCc4ccccc4)OB(O)C[C@@H]32)C(=O)N1Cc1ccccc1	0.413
Cc1nc2cc(Br)ccc2c(=O)n1Cc1cccc(O)c1	0.218
C=CCNC(=O)[C@H]1[C@@H]2C(=O)O[C@@H](c3ccccc3)[C@@H](c3ccccc3)N2[C@@H](c2ccc(OCCO)cc2)[C@]12C(=O)N(C(=O)OCCOC)c1ccc(C#Cc3ccc(OC)cc3)cc12	0.447

# composite z-score (molecule: CC(C)C[C@@H]1NC(=O)CNC(=O)[C@@]23C(=O)N[C@@H](Cc4ccccc4)C2[C@H](C)[C@@]2(C)O[C@H]2C3/C=C/C/C=C\CNC1=O (some centres not stated) ) is 0.461
